assay: Oral bioavailability in rat at 2 mg/kg by LC-MS/MS analysis; format: ADME, organism-based; settings: in vivo
parameter-measured: bioavailability

mol-smiles | parameter-measured | result
Cc1ccc(NC(=O)c2ccnc(C(F)(F)F)c2)cc1-c1ccc2c(c1)OC1(CCOCC1)NC2=O | bioavailability | 24%

----------
molecular target: Serine/threonine-protein kinase B-raf (Homo sapiens, UniProt P15056); experiment: Inhibition of human recombinant wild-type bRAF measured after 1 hr by TR-FRET assay
Sequence (P15056 whole entry): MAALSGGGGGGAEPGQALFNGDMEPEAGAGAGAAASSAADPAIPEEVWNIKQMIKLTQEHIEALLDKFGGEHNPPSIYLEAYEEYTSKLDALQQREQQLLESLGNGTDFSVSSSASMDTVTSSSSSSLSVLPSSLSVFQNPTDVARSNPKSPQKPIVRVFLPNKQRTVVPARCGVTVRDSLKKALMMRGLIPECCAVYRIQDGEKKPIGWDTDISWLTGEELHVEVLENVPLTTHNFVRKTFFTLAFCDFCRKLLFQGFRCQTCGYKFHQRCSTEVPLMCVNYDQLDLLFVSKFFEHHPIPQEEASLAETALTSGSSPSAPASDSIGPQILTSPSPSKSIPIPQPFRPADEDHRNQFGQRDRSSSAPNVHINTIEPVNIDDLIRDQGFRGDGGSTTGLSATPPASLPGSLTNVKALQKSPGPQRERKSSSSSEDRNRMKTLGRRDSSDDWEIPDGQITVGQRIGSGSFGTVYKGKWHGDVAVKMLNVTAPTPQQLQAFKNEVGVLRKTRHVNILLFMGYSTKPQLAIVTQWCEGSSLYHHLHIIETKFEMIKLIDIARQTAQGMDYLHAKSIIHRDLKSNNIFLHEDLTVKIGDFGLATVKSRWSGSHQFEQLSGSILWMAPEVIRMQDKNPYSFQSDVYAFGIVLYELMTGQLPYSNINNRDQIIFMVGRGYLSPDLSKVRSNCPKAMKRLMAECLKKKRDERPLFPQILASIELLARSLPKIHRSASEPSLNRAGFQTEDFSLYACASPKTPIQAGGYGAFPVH
parameter-measured: IC50

mol-smiles | parameter-measured | result
Cc1ccc(NC(=O)c2ccnc(C(F)(F)F)c2)cc1-c1ccc2c(c1)OC1(CCOCC1)NC2=O | IC50 | 36 nM

----------
assay: MRT (0 to infinity) in rat at 2 mg/kg, po by LC-MS/MS analysis; format: ADME, organism-based; conditions: in vivo
parameter-measured: MRT inf

mol-smiles | parameter-measured | result
Cc1ccc(NC(=O)c2ccnc(C(F)(F)F)c2)cc1-c1ccc2c(c1)OC1(CCOCC1)NC2=O | MRT inf | 8.14 h

----------
biological target: Voltage-gated inwardly rectifying potassium channel KCNH2 (Homo sapiens, UniProt Q12809)
Sequence (Q12809 whole entry): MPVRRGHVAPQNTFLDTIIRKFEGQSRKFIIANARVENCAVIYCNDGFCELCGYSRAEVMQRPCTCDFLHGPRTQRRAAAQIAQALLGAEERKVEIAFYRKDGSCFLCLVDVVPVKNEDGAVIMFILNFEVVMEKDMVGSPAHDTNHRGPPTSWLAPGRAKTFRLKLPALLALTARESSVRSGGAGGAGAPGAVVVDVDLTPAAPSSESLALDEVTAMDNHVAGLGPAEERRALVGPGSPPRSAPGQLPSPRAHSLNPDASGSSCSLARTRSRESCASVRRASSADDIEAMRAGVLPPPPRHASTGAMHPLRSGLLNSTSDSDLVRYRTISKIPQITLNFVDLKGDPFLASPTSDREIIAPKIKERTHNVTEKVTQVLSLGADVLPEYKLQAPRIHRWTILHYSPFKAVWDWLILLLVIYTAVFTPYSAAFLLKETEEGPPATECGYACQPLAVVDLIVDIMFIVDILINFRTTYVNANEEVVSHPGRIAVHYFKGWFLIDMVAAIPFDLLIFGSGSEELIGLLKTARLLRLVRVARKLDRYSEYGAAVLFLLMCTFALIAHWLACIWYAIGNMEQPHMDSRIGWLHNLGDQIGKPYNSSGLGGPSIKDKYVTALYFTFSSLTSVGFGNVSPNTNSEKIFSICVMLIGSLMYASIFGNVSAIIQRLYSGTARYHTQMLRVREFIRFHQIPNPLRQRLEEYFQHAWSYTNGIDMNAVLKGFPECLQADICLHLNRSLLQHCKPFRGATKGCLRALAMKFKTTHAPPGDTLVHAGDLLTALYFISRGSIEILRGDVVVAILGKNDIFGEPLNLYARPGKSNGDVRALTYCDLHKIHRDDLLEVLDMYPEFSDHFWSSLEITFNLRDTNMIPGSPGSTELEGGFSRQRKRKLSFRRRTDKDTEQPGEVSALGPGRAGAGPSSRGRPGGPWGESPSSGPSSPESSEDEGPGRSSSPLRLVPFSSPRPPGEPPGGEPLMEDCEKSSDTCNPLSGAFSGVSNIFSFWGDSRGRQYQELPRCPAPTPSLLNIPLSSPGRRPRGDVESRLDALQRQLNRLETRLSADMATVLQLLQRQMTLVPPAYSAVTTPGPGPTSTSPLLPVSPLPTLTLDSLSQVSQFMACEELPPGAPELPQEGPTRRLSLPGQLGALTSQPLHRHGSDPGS

mol-smiles | IC50
Cc1ccc(NC(=O)c2ccnc(C(F)(F)F)c2)cc1-c1ccc2c(c1)OC1(CCOCC1)NC2=O | 5.9 µM
Cc1ccc(NC(=O)c2ccnc(C(F)(F)F)c2)cc1-c1ccc2c(c1)OC1(CCOCC1)CC2=O | 3.4 µM

----------
molecular target: RAF proto-oncogene serine/threonine-protein kinase (Homo sapiens); experiment: Inhibition of human recombinant cRAF measured after 1 hr by TR-FRET assay
Sequence (P04049 whole entry): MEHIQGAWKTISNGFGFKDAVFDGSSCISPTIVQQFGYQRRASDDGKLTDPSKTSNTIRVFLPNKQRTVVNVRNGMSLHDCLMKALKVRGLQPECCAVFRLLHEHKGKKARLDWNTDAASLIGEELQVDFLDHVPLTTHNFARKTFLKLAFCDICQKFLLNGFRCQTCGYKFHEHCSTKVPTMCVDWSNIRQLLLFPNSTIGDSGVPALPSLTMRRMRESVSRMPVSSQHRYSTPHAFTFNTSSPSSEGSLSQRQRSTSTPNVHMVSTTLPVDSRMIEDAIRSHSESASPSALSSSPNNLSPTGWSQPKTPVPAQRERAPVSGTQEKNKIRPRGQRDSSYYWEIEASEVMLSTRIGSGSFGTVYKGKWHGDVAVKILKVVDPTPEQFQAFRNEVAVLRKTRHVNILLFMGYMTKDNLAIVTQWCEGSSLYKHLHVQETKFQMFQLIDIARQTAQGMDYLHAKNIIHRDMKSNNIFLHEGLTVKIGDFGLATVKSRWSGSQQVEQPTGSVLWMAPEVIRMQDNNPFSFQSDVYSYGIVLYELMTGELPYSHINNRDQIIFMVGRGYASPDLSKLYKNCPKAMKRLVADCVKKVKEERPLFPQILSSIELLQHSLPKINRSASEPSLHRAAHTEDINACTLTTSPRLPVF
Quick rule for you: IC50 under 20 nM gets y, anything else gets n.

molecule | target-or-system | label-class
Cc1ccc(NC(=O)c2ccnc(C(F)(F)F)c2)cc1-c1ccc2c(c1)OC1(CCSCC1)NC2=O | RAF proto-oncogene serine/threonine-protein kinase (Homo sapiens) | y
Cc1ccc(NC(=O)c2ccnc(C(F)(F)F)c2)cc1-c1ccc2c(c1)N(O)C1(CCOCC1)NC2=O | RAF proto-oncogene serine/threonine-protein kinase (Homo sapiens) | n
Cc1ccc(NC(=O)c2ccnc(C(F)(F)F)c2)cc1-c1ccc2c(c1)OC1(CCS(=O)(=O)CC1)NC2=O | RAF proto-oncogene serine/threonine-protein kinase (Homo sapiens) | y
Cc1ccc(NC(=O)c2ccnc(C(F)(F)F)c2)cc1-c1ccc2c(c1)OC1(CCOCC1)CC2=O | RAF proto-oncogene serine/threonine-protein kinase (Homo sapiens) | y
Cc1ccc(NC(=O)c2ccnc(C(F)(F)F)c2)cc1-c1ccc2c(c1)OC1(COC1)NC2=O | RAF proto-oncogene serine/threonine-protein kinase (Homo sapiens) | n
Cc1ccc(NC(=O)c2ccnc(C(F)(F)F)c2)cc1-c1ccc2c(c1)NC1(CCOCC1)NC2=O | RAF proto-oncogene serine/threonine-protein kinase (Homo sapiens) | y
Cc1ccc(NC(=O)c2ccnc(C(F)(F)F)c2)cc1-c1ccc2c(c1)OC1(CCCOC1)NC2=O (centres undefined) | RAF proto-oncogene serine/threonine-protein kinase (Homo sapiens) | y
Cc1ccc(NC(=O)c2ccnc(C(F)(F)F)c2)cc1-c1ccc2c(c1)OC1(CCOCC1)C(=O)N2 | RAF proto-oncogene serine/threonine-protein kinase (Homo sapiens) | y
Cc1ccc(NC(=O)c2ccnc(C(F)(F)F)c2)cc1-c1ccc2c(c1)SC1(CCOCC1)CC2=O | RAF proto-oncogene serine/threonine-protein kinase (Homo sapiens) | n
Cc1ccc(NC(=O)c2ccnc(C(F)(F)F)c2)cc1-c1ccc2c(c1)OC1(CCOCC1)NC2=O | RAF proto-oncogene serine/threonine-protein kinase (Homo sapiens) | y
Cc1ccc(NC(=O)c2ccnc(C(F)(F)F)c2)cc1-c1ccc2c(c1)C(=O)CC1(CCOCC1)O2 | RAF proto-oncogene serine/threonine-protein kinase (Homo sapiens) | n
Cc1ccc(NC(=O)c2ccnc(C(F)(F)F)c2)cc1-c1ccc2c(c1)OC1(CCOC1)NC2=O (centres undefined) | RAF proto-oncogene serine/threonine-protein kinase (Homo sapiens) | y
Cc1ccc(NC(=O)c2ccnc(C(F)(F)F)c2)cc1-c1ccc2c(c1)OC1(CCNCC1)NC2=O | RAF proto-oncogene serine/threonine-protein kinase (Homo sapiens) | y
Cc1ccc(NC(=O)c2ccnc(C(F)(F)F)c2)cc1-c1ccc2c(c1)NC1(CCOCC1)NS2(=O)=O | RAF proto-oncogene serine/threonine-protein kinase (Homo sapiens) | n
Cc1ccc(NC(=O)c2ccnc(C(F)(F)F)c2)cc1-c1ccc2c(c1)OC1(CCOCC1)CC2NCCO (centres undefined) | RAF proto-oncogene serine/threonine-protein kinase (Homo sapiens) | n
Cc1ccc(NC(=O)c2ccnc(C(F)(F)F)c2)cc1-c1ccc2c(c1)OC1(CCOCC1)CC2N (centres undefined) | RAF proto-oncogene serine/threonine-protein kinase (Homo sapiens) | n
Cc1ccc(NC(=O)c2ccnc(C(F)(F)F)c2)cc1-c1ccc2c(c1)OC1(CCOCC1)CC2 | RAF proto-oncogene serine/threonine-protein kinase (Homo sapiens) | n
Cc1ccc(NC(=O)c2ccnc(C(F)(F)F)c2)cc1-c1cnc2c(c1)OC1(CCOCC1)NC2=O | RAF proto-oncogene serine/threonine-protein kinase (Homo sapiens) | n
Cc1ccc(NC(=O)c2ccnc(C(F)(F)F)c2)cc1-c1ccc2c(c1)OC1(CCOCC1)CC2O (centres undefined) | RAF proto-oncogene serine/threonine-protein kinase (Homo sapiens) | y
